Target: T1, Human CD228 protein (human, UniProt P08582 20-708, limits assumed)
T1 construct: Recombinant protein made in CHO cells, purified over a Ni column; The printed entry begins with the leader (MRGPSG...) and ends with ten His; also called hCD228; CD228-His protein
T1 sequence: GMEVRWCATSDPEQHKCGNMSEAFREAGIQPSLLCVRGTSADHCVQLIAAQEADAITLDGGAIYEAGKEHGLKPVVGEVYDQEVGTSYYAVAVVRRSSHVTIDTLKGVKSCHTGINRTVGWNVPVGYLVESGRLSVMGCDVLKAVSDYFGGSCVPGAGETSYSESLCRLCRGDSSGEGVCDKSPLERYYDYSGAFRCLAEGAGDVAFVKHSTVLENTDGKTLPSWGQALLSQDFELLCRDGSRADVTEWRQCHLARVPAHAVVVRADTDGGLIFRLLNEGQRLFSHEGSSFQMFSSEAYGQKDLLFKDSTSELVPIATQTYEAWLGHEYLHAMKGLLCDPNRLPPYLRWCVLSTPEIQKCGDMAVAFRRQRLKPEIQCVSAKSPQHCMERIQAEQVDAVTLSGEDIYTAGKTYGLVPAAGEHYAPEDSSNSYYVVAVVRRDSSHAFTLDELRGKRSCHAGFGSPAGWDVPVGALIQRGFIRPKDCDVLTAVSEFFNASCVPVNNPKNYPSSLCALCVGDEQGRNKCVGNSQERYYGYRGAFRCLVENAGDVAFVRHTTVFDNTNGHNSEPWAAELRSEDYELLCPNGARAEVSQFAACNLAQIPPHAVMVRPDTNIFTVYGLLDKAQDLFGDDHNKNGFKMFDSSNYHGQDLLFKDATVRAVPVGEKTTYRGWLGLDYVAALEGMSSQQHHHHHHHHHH
Procedure details: Octet competition on His-chip CD228; competitor: hl49
Is Octet response value at least 0.3? Then Met. If not, Not met.

{"Binder": "CA13 (antibody, human IgG1, kappa, V domains shown, Intact IgG1 from fully human antibody-transgenic mice) VH: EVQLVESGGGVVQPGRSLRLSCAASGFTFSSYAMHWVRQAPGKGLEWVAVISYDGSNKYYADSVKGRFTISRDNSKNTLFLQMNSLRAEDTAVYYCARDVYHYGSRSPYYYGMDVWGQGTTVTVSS VL: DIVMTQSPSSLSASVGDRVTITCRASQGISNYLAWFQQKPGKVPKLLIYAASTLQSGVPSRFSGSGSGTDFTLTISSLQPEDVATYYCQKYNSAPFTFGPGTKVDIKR", "Category label": "Met"}
{"Binder": "CA67 (antibody, human IgG1, kappa, V domains shown, Intact IgG1) VH: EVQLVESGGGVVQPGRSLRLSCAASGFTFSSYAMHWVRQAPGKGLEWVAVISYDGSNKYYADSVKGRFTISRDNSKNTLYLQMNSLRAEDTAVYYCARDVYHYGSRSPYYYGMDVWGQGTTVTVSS VL: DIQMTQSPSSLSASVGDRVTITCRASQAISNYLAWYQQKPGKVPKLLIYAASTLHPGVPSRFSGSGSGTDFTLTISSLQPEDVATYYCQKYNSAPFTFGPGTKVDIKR", "Category label": "Met"}
{"Binder": "CA518 (antibody, human IgG1, kappa, V domains shown, Intact IgG1) VH: EVQLVESGGGVVQPGRSLRLSCAASGFTFSSYAMHWVRQAPGKGLEWVAVISYDGSNKYHADSVKGRFTISRDNSKNTLFLQMNSLRAEDTAVYYCVRDVYHYGSRSPYYYGMDVWGQGTTVTVSS VL: DIQMTQSPSSVSASVGDRVTITCRASQGISSWLAWYQQKPGKAPKLLIYAASSLQSGVPSRFSGSGSGTDFTLTISSLQPEDVATYYCQKYNSAPFTFGPGTKVDIKR", "Category label": "Not met"}
{"Binder": "CA149 (antibody, human IgG1, kappa, V domains shown, Intact IgG1; also called CA149 antibody) VH: EVQLVESGGGVVQPGRSLRLSCAASGFTFSSYAMHWVRQAPGKGLEWVAVISFDGSNKYYTDSVKGRFTISRDNSKNTLYLQMNSLRAEDTAVYYCAREVPYYYGSGPFDYWGQGTLVTVSS VL: EIVLTQSPATLSVSPGERATLSCRASQSVSSNLAWYQQKPGQAPRHLIDGASSRASGIPDRFSGSGSGTDFTLTISRLEPEDFAVYYCQQYGSSPPFTFGPGTKVDIKR", "Category label": "Met"}
{"Binder": "reference antibody hL49 (antibody, human IgG1, kappa, V domains shown, also called H149; hL49 analogy) VH: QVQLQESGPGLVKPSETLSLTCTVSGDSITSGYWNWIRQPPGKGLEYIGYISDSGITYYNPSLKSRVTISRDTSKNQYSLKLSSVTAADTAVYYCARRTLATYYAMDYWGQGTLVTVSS VL: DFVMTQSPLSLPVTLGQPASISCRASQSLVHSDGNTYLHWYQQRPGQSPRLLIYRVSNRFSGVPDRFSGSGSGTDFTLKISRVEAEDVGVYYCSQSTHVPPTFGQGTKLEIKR", "Category label": "Not met"}
{"Binder": "BA352 (antibody, human IgG1, kappa, V domains shown, Intact IgG1) VH: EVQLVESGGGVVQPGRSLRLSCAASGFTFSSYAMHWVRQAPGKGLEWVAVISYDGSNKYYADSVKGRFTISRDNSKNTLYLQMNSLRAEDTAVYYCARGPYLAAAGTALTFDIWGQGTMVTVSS VL: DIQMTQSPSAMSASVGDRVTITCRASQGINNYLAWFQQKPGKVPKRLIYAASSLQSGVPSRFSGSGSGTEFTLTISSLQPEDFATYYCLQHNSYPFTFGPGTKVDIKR", "Category label": "Not met"}
